Assay: Metabolic stability in human liver microsomes assessed as compound remaining at 2 uM after 1 hr by LC-MS/MS analysis
Assay type: ADME, Microsome
Details: read-out: Stability
Field: remaining at 1 h, 2 µM. Provide a value for each of the compounds that follow.
Numbers only, in %.

[[record]]
sample_smiles = "COc1ccccc1OC[C@H](O)CO"
measured_number = 97.4


Kindly consider the entry below.
Can you look up the measured remaining at 1 h, 2 µM of COc1ccccc1OC[C@@H](O)CO for me?
94.8

---

Experiment: AUC (0 to t) in streptozotocin-induced C57BL/6J mouse diabetic neuropathy model at 10 mg/kg, po by LC-MS/MS analysis
Type: ADME, organism-based
Design: dose 10 mg/kg, route oral
Details: in vivo
measured attribute: AUC(0-t)
Remember to follow the number with its unit.

[[record]]
molecule = "COc1ccccc1OC[C@H](O)CO"
measured_attribute = "AUC(0-t)"
result = "0.746 µM·h"


Kindly consider the entry below.
Can you look up the measured AUC(0-t) of COc1ccccc1OCC(O)CO (racemic) for me?
1.91 µM·h

Data origin: ChEMBL document CHEMBL2390886
